- Tested system: T1, human OX40 on cells (human, UniProt P43489 29-277)
- T1 sequence: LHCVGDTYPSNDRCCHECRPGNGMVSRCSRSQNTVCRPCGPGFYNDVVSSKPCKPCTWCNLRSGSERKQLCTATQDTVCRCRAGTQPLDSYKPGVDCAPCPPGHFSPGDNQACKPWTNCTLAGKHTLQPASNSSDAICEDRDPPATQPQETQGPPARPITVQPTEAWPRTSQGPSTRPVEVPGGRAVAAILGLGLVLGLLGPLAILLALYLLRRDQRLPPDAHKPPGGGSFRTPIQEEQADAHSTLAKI
- Experiment summary: cell-based or functional assay
Measure name: IFNγ EC50, CD4 T cells + CHO-CD3-CD32A (nM)

Binder	Measure name	Endpoint result
OX40.18 (antibody, human IgG1, kappa, V domains shown, g1f) VH: QVQLVQSGAEVKKPGASVKVSCKASGYTFTSYDVNWVRQATGQGLEWMGWMNPNSGNTGYAPKFQGRVTMTRDTSISTAYMELSSLRSEDTAVYYCARIYSSSYNWFDYWGQGTLVTVSS VL: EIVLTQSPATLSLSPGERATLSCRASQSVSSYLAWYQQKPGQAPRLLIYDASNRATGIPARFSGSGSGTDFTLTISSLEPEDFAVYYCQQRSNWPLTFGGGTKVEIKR	IFNγ EC50, CD4 T cells + CHO-CD3-CD32A	0.49
